// provenance: ChEMBL document CHEMBL1138351

pIC50: −log10 of the molar value.
As a worked illustration, we turn to pIC50 data collected for Plasminogen (Homo sapiens, UniProt P00747).

Molecule | Tested Target | pIC50
COC(=O)NC(Cc1ccc(NC(=N)N)cc1)P(=O)(Oc1ccc(NC(C)=O)cc1)Oc1ccc(NC(C)=O)cc1 (stereo not drawn) | Plasminogen (Homo sapiens, UniProt P00747) | 5.55
COC(=O)NC(Cc1ccc(NC(=N)N)cc1)P(=O)(Oc1ccccc1)Oc1ccccc1 (stereo not drawn) | Plasminogen (Homo sapiens, UniProt P00747) | 4.89
N=C(N)NCCCC(NC(=O)OCc1ccccc1)P(=O)(Oc1ccccc1)Oc1ccccc1 (stereo not drawn) | Plasminogen (Homo sapiens, UniProt P00747) | 4.52
